Numbers sourced from patent US20230105029A1.

target: T1, recombinant human IL4Rα-his protein (in house made) (human, UniProt P24394 26-232, limits assumed); assay: SPR (Biacore), antibody captured, IL4Rα-his flowed
T1 construct: also called Human IL4Ra-his
ASSAY ENDPOINT: pKd
Numbers only, as −log10 of the molar value.

For this binder ( huB8G11F2B7G5E8-V2 (antibody, human IgG4 S228P, kappa, V domains shown, Humanized, human IgG4/kappa; also called huBSG11F2B7G5E8-V2) VH: EVQLVQSGAEVKKPGATVKISCKVSGFNIKDTYMHWVKQAPGKGLEWVGRIDPTNGYTIYASKFQGKATITADTSSNTAYMELSSLRSEDTAVYHCVSRRPWFAYWGQGTLVTVSS VL: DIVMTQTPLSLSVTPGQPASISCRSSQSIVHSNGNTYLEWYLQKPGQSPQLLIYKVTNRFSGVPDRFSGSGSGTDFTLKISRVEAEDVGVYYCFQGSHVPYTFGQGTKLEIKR ), measured pKd is 8.39
